All figures here come from the Immune Epitope Database (IEDB).

- target: HLA-A*31:01
- measurementProtocol: IEDB peptide-MHC binding, purified MHC/competitive/radioactivity; filed as Kd, often an IC50 or EC50 that approximates it; bounds were set here for any values at or beyond the usual limits of such assays
- conditionDetails: source organism: Vaccinia virus WR
Quick list: Kd per entry.
metricName: Kd (µM)

    orderedresidues  metricname  op  measuredvalue
 0        LFHGGEPIK          Kd   ≥           77.9
 1        VMNFIPIIY          Kd   ≥           20.9
 2        YTYDRVDIY          Kd   =           9.37
 3        ELGFNYPEY          Kd   ≥           77.9
 4        ALFMYYAKR          Kd   =       0.000449
 5       RASTTENAAY          Kd   =           2.09
 6       FAEESYTYYY          Kd   ≥             70
 7        TAKVIKLVK          Kd   =           19.9
 8       PMVIENGILK          Kd   ≥           24.1
 9        IMDKEQLLK          Kd   =           1.13
10        YSRVNHAKY          Kd   ≥           73.7
11       GLLDSIKMIY          Kd   =           1.54
12       FVNEKYCIIK          Kd   =           6.15
13       PLHILASNKK          Kd   =            7.7
14        IVSLCPTKK          Kd   =           1.61
